# target.under.test: Dual specificity mitogen-activated protein kinase kinase 1 (Homo sapiens) (UniProt Q02750);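 further: reported value is a mean percent inhibition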
# Sequence (Q02750 whole entry): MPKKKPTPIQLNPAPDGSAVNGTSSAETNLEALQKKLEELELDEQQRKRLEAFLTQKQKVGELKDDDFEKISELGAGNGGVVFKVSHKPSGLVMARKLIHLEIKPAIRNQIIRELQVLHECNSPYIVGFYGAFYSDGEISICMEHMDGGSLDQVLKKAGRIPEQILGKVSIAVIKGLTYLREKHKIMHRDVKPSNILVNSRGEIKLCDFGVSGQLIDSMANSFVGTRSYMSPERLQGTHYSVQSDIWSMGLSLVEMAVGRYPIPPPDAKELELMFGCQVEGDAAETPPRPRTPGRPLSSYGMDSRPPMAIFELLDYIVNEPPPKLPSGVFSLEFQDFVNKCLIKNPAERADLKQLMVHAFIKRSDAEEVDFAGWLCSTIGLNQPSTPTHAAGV
# particulars: at 0.1 µM
Assign inhibition to each entry below.
Numbers only, in %.

[[record]]
compound = "CNC(=O)c1cncc(/C=C/c2c(Cl)cccc2Cl)c1"
target_under_test = "Dual specificity mitogen-activated protein kinase kinase 1 (Homo sapiens) (UniProt Q02750)"
property_label = "inhibition"
test_result = 1.66

[[record]]
compound = "[O-][S+]1CCN(Cc2ccc(-c3ccc4ncnc(Nc5ccc(OCc6ccccc6)c(F)c5)c4c3)o2)CC1"
target_under_test = "Dual specificity mitogen-activated protein kinase kinase 1 (Homo sapiens) (UniProt Q02750)"
property_label = "inhibition"
test_result = 2.4

[[record]]
compound = "Cc1cc(O)cc(C)c1/C=C/c1cncc(-c2nn[nH]n2)c1"
target_under_test = "Dual specificity mitogen-activated protein kinase kinase 1 (Homo sapiens) (UniProt Q02750)"
property_label = "inhibition"
test_result = 6.51

[[record]]
compound = "CC1=C(C(=O)Nc2ccc3[nH]ncc3c2)C(c2ccc3ccccc3c2)CC(=O)N1 (stereo not given)"
target_under_test = "Dual specificity mitogen-activated protein kinase kinase 1 (Homo sapiens) (UniProt Q02750)"
property_label = "inhibition"
test_result = 8.09

[[record]]
compound = "CC1=C(C(=O)Nc2ccc3[nH]ncc3c2)C(c2ccc(Cl)c(Cl)c2)CC(=O)N1 (stereo not given)"
target_under_test = "Dual specificity mitogen-activated protein kinase kinase 1 (Homo sapiens) (UniProt Q02750)"
property_label = "inhibition"
test_result = 4.74


# map each compound to its inhibition
1. COc1ccc(-c2ccncc2)cc1C(N)=O
2. CCn1c(-c2nonc2N)nc2cncc(C(=O)N3CC[C@H](N)C3)c21
3. COc1ccccc1Nc1ncc(-c2ccccc2)o1

result:
1. 4.89
2. 6.85
3. 4.67

# map each compound to its inhibition
1. NS(=O)(=O)c1cccc(-c2ccc3c(NC(=O)C4CC4)n[nH]c3c2)c1
2. CC1=C(C(=O)Nc2ccc3[nH]ncc3c2)C(c2ccc(F)cc2)NC(=O)N1 (stereo not given)

result:
1. -1.43
2. 2.25

* * *

# target.under.test: Phosphatidylinositol 4,5-bisphosphate 3-kinase catalytic subunit delta isoform (Homo sapiens) (UniProt O00329);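 further: values are mean percent inhibition of PI3K-delta, part of the GSK PKIS screen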
# Sequence (O00329 whole entry, canonical isoform): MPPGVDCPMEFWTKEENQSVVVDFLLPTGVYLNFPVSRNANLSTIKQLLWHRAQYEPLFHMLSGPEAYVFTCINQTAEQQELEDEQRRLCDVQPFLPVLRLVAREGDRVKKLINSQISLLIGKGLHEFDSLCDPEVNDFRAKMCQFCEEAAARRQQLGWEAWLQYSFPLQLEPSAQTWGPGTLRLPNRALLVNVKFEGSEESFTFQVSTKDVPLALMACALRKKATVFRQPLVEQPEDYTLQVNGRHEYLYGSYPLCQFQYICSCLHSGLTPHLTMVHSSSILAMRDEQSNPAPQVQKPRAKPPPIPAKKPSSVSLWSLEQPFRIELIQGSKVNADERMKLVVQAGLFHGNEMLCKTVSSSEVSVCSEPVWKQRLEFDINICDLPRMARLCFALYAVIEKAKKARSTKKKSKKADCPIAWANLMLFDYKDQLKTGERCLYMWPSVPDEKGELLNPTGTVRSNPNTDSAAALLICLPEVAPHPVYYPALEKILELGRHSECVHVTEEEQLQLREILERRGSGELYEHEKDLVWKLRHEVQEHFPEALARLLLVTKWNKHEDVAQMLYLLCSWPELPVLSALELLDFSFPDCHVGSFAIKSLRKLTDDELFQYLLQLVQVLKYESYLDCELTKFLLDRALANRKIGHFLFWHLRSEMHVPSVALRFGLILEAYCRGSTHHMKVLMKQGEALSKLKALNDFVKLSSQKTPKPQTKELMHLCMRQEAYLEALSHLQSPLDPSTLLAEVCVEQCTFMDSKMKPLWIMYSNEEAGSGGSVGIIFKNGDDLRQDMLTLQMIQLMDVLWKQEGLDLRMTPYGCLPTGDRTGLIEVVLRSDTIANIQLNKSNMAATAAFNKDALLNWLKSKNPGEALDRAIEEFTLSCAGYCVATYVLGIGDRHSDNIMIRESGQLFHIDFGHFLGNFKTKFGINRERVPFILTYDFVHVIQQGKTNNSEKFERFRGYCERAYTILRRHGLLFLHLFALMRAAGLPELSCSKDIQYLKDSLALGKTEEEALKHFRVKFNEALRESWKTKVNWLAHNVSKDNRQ
# particulars: at 0.1 µM
Assign inhibition to each entry below.
One number for each entry, in %.

// known answers, use as guide
[[record]]
smi = "CCCN1CCC=C(c2ccc(Nc3nc(Nc4ccccc4C(N)=O)c4cc[nH]c4n3)c(C)c2)C1"
test_result = 1.79

[[record]]
smi = "Cc1cc(O)cc(C)c1/C=C/c1cncc(-c2nn[nH]n2)c1"
test_result = 2.19

[[record]]
smi = "O=C1NC(=O)C(c2ccccc2Cl)=C1Nc1cccc(O)c1"
test_result = 2.66

[[record]]
smi = "c1cnn2ncc(-c3ccnc(Nc4ccc5c(c4)OCCO5)n3)c2c1"
test_result = 4.69

[[record]]
smi = "CC(=O)Nc1cccc(C#Cc2cncnc2Nc2ccc(OCc3cccc(F)c3)c(Cl)c2)n1"
test_result = -2.12

[[record]]
smi = "CS(=O)(=O)CCNCc1ccc(-c2ccc3ncnc(Nc4ccc(OCc5ccccc5)c(Cl)c4)c3c2)o1"
test_result = -2.16

[[record]]
smi = "Fc1cccc(COc2ccc(Nc3ncnc4cc(-c5ccc[nH]5)sc34)cc2Cl)c1"
test_result = 2.77

[[record]]
smi = "O=C1NC(=O)C(c2cccc(Cl)c2)=C1Nc1ccc(O)c(Cl)c1"
test_result = 0.8


# map each compound to its inhibition
1. NC(=O)c1cccc(Nc2nccc(Nc3cccc4[nH]ncc34)n2)c1
2. CS(=O)(=O)CCN(CC#N)Cc1ccc(-c2ccc3ncnc(Nc4ccc(OCc5cccc(F)c5)c(Cl)c4)c3c2)o1

result:
1. 1.39
2. 1.1
